Test system: CEM cells HIV-1 protection, formazan growth assay
Assay: NCI AIDS Antiviral Assay
Conditions: measured here: growth of uninfected CEM cells
pIC50: −log10 of the molar value.
OUTCOME_MEASURE: pIC50

QUERY: For COc1ccc2c(c1)C(=O)[C@@](Nc1ccc(C=O)cc1)(OC)[C@@](OC)(c1ccc([N+](=O)[O-])cc1)O2 , what is its reported pIC50?
RESULT: 4.07

QUERY: For NC1=NNC(=O)C1N=Nc1ccc(S(=O)(=O)Nc2nccs2)cc1 (centres undefined) , what is its reported pIC50?
RESULT: < 3.70

QUERY: For COc1cc2nc(Sc3c([N+](=O)[O-])ncn3C)[nH]c2cc1OC , what is its reported pIC50?
RESULT: 5.26

QUERY: For Brc1cc(C2OCCCO2)ccc1OCc1ccccc1 , what is its reported pIC50?
RESULT: < 4.27

QUERY: For CC(=O)CCn1c(=S)sc2ccccc21 , what is its reported pIC50?
RESULT: 4.03

QUERY: For COc1cc(C2c3cc4c(cc3CCN2C(=O)c2ccccc2)OCO4)cc(OC)c1OC (centres undefined) , what is its reported pIC50?
RESULT: 4.87

###

Test system: CEM cells HIV-1 protection, formazan growth assay
Experiment: NCI AIDS Antiviral Assay;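 active means compounds giving half or more protection of infected cells from virus-caused growth loss, again on retest; inactive means the rest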
I would appreciate it if you answered using one of these outcomes: active, inactive

Observe how each entry below is paired with its result.
[
  {
    "COMPOUND": "O=c1c2ccccc2[nH]c2c(Cl)cc(Cl)c(NC3CCCCC3)c12",
    "CATEGORY_LABEL": "inactive"
  },
  {
    "COMPOUND": "c1ccc(/C2=N\\OCCCOc3ccccc32)cc1",
    "CATEGORY_LABEL": "inactive"
  }
]

QUERY: What was the test verdict on C=CCN1C(=O)C(c2ccccc2)(c2ccccc2)NC1=S ?
RESULT: inactive

###

Test system: CEM cells HIV-1 protection, formazan growth assay
Experiment: NCI AIDS Antiviral Assay
Settings: measured here: growth of uninfected CEM cells
OUTCOME_MEASURE: IC50 (µM)
Give the number; µM is assumed, so skip it.

[
  {
    "COMPOUND": "O=C(/C=C/c1cccc2ccccc12)c1ccccc1Cl",
    "MEASURED": 11
  },
  {
    "COMPOUND": "OCCSCCCSCCO",
    "MEASURED": 72.4
  },
  {
    "COMPOUND": "O=C(OC12CC3CC(CC(C3)C1)C2)c1ccc(NCc2cc(O)ccc2O)cc1",
    "MEASURED": 0.955
  },
  {
    "COMPOUND": "O=C1c2scnc2-c2nccc3c2c1nc1ccccc13",
    "MEASURED": 0.457
  }
]

QUERY: Please state recorded IC50 (tested on CEM cells HIV-1 protection, formazan growth assay) of CCOC(=O)/C(=C/c1ccc(C)cc1)P(=O)(OCC)OCC
RESULT: 631

###

Test system: CEM cells HIV-1 protection, formazan growth assay
Experiment: NCI AIDS Antiviral Assay
OUTCOME_MEASURE: EC50

Illustrative cases are given below, each with its answer.
[
  {
    "MOLECULE": "O=C(O)c1cc2ccccc2c(I)c1O",
    "EC50": "> 200 µM"
  },
  {
    "MOLECULE": "CCc1cccc(C)c1NC(=O)C1=C(C)NC(C)=C(C(=O)Nc2c(C)cccc2CC)C1c1ccc([N+](=O)[O-])cc1",
    "EC50": "> 12.9 µM"
  },
  {
    "MOLECULE": "Cn1c2ccccc2c(=O)c2c(O)cc3c(c21)C1OCC(C)(O)C1O3 (stereo not given)",
    "EC50": "> 200 µM"
  }
]

QUERY: For COc1ccc(C2=NOC3COC4C=CC=CC4OCC23)cc1 (stereo not given) , what is its reported EC50?
RESULT: > 83.2 µM

QUERY: For O=c1oc2ccccc2cc1/C=N/N1C(=S)N(c2ccccc2)C(=Nc2ccccc2)C1=Nc1ccccc1 , what is its reported EC50?
RESULT: > 200 µM

###

Catalogue of IC50 readings, one per entry.
System: CEM cells HIV-1 protection, formazan growth assay
Test: NCI AIDS Antiviral Assay
Settings: measured here: growth of uninfected CEM cells

Illustrative cases are given below, each with its answer.
[
  {
    "COMPOUND": "C=C1C(C)C2C(Cc3ccccc3)NC(=O)C23OC(=O)/C=C\\CC(=O)CCC(C)C/C=C/C3C1O (configuration not stated)",
    "MEASURED": "1.45 µM"
  },
  {
    "COMPOUND": "COC(=O)c1cc2c(s1)C(=O)c1ccccc1-2",
    "MEASURED": "> 2.24 µM"
  },
  {
    "COMPOUND": "BrC1CCCCCC(Br)C12OCCO2 (configuration not stated)",
    "MEASURED": "> 57.5 µM"
  }
]

QUERY: For CC1SC(=O)SC1C (configuration not stated) , what is its reported IC50?
RESULT: > 1700 µM

QUERY: For O=C(N[C@@H](CSSC[C@H](NC(=O)OCc1ccccc1)C(=O)O)C(=O)O)OCc1ccccc1 , what is its reported IC50?
RESULT: 74.1 µM

QUERY: For CCCCS(=O)CCC(N)P(=O)(O)O (configuration not stated) , what is its reported IC50?
RESULT: > 200 µM

###

Catalogue of pIC50 readings, one per entry.
Tested on: CEM cells HIV-1 protection, formazan growth assay
Assay: NCI AIDS Antiviral Assay
Details: measured here: growth of uninfected CEM cells
Scale explanation: pIC50 corresponds to minus log10 of a concentration expressed in moles per litre.

[
  {
    "COMPOUND": "COC(=O)c1cc(C(=CCl)c2cc(C(=O)OC)c(OC)c(Br)c2C)c(C)c(Br)c1OC",
    "OUTCOME_MEASURE": "pIC50",
    "MEASURED": 5.19
  }
]

QUERY: For Cc1cc(C)nc(NS(=O)(=O)c2ccc(Nc3c4ccccc4nc4c(C(=O)NNCCO)cccc34)cc2)n1 , what is its reported pIC50?
RESULT: 4.48

###

Tested on: CEM cells HIV-1 protection, formazan growth assay
Assay: NCI AIDS Antiviral Assay
OUTCOME_MEASURE: EC50

[
  {
    "COMPOUND": "C#CC(C)(C)Oc1ccc2c(=O)c(-c3ccccc3)coc2c1",
    "EC50": "> 200 µM"
  },
  {
    "COMPOUND": "O=C1CSC(c2ccccc2O)N1c1ccc(-n2c(-c3ccccc3)nc3ccccc3c2=O)cc1 (stereo unspecified)",
    "EC50": "> 200 µM"
  },
  {
    "COMPOUND": "N#C/C(=C\\c1ccccc1F)C(=O)c1ccccc1",
    "EC50": "> 75.9 µM"
  },
  {
    "COMPOUND": "O=C([O-])C(F)(F)F.[C-]#[O+].[C-]#[O+].[C-]#[O+].[C-]#[O+].[C-]#[O+].[Mn]",
    "EC50": "> 813 µM"
  },
  {
    "COMPOUND": "Cc1ccc(-c2n[nH]c(=O)n2N)cc1",
    "EC50": "> 200 µM"
  },
  {
    "COMPOUND": "C[N+](C)(CCNc1ccc(NCC[N+](C)(C)Cc2ccc([N+](=O)[O-])cc2)c2c1C(=O)c1ccccc1C2=O)Cc1ccc([N+](=O)[O-])cc1",
    "EC50": "> 151 µM"
  },
  {
    "COMPOUND": "COc1ccc(N2C(Cl)C(=O)C2c2c[nH]c3ccccc23)cc1 (stereo unspecified)",
    "EC50": "> 151 µM"
  },
  {
    "COMPOUND": "CC(C)=CCC[C@@H](C)c1c(O)c(O)c(C)c2nccnc12",
    "EC50": "> 200 µM"
  }
]

QUERY: For COC(=O)[C@H](C)N(C)C(=O)[C@H](C)N1[C@@H](c2ccccc2)COC1(C)C , what is its reported EC50?
RESULT: > 200 µM

QUERY: For CCOC(=O)C(=Cc1ccccc1F)C(=O)OCC , what is its reported EC50?
RESULT: > 135 µM

###

Test system: CEM cells HIV-1 protection, formazan growth assay
Assay: NCI AIDS Antiviral Assay
Details: measured here: growth of uninfected CEM cells
OUTCOME_MEASURE: IC50

[
  {
    "COMPOUND": "O=c1cc(-c2ccc(O)cc2)oc2cc(O)cc(O)c12",
    "MEASURED": "20.4 µM"
  },
  {
    "COMPOUND": "O=S1c2ccccc2N=C(c2cccc3ccccc23)CC1c1cccc2ccccc12 (centres undefined)",
    "MEASURED": "> 60.3 µM"
  },
  {
    "COMPOUND": "CC1=C(C)SC(=C2Sc3c(n(C)c(=O)[nH]c3=O)S2)S1",
    "MEASURED": "> 200 µM"
  },
  {
    "COMPOUND": "c1ccc(CN2CCC3(CC2)SSC2(CCN(Cc4ccccc4)CC2)SS3)cc1",
    "MEASURED": "64.6 µM"
  },
  {
    "COMPOUND": "COCCOCCOCCOCCOCCOCCOCCOCCOCCOCCOCCOCCOCCOCCOCCOCCOCC(=O)N(CCn1cnc2nc(NC(=O)c3ccccc3)[nH]c(=O)c21)CCn1cnc2nc(NC(=O)c3ccccc3)[nH]c(=O)c21",
    "MEASURED": "47.9 µM"
  },
  {
    "COMPOUND": "CN(C)c1ccc(/C=C(/C(=O)O)c2csc(-c3nc(/C(=C\\c4ccc(N(C)C)cc4)C(=O)O)cs3)n2)cc1",
    "MEASURED": "> 34.7 µM"
  }
]

QUERY: For OC[C@H]1C[C@@H]2Cc3ccccc3N2N1 , what is its reported IC50?
RESULT: > 200 µM

QUERY: For CC(=O)Nc1cccc(N2C(=O)/C(=C\c3cccc(Oc4ccccc4)c3)SC2c2ccccc2)c1 (centres undefined) , what is its reported IC50?
RESULT: 30.9 µM

QUERY: For CC1(C)CCNc2ccccc2S1 , what is its reported IC50?
RESULT: > 229 µM
